assay: Constant-force (CF) single-molecule optical tweezers folding assay of guanine-aptamer RNAs in guanine buffer; assay type: physicochemical; settings: transition BA (P1 folding); F 8.5 pN; 3 mM Mg^2+, 200 nM G
Property Name: Unfolding rate ku (s⁻¹)
Just the number please, in s⁻¹, no unit attached.

[ask] Need Unfolding rate ku, item m6: m6 mutant guanine sensing aptamer RNA (SEQ ID NO: 7); U67A, shorter P3 hairpin and larger L3 loop (nucleic acid, RNA, backbone and methylation of C not given here, U67A, shorter P3 hairpin and larger L3 loop) CACUCAUAUAAUCGCGUGGAUAUGGCACGCAAGUUUCUACCGGGCACCGUAAAAGUCCGACUAUGGGUG
[reply] 1.0

[ask] Name the reported Unfolding rate ku value associated with the molecule wt: 69-nucleotide full-length wild-type guanine sensing aptamer RNA sequence from xpt-pbuX operon in B. subtilis (SEQ ID NO: 1) (nucleic acid, RNA, backbone and methylation of C not given here) CACUCAUAUAAUCGCGUGGAUAUGGCACGCAAGUUUCUACCGGGCACCGUAAAUGUCCGACUAUGGGUG
[reply] 0.7

[ask] Looking for the measured Unfolding rate ku of m4: m4 mutant guanine sensing aptamer RNA (SEQ ID NO: 5); A59G/U67C in the P3 hairpin (nucleic acid, RNA, backbone and methylation of C not given here, A59G/U67C in the P3 hairpin) CACUCAUAUAAUCGCGUGGAUAUGGCACGCAAGUUUCUACCGGGCGCCGUAAACGUCCGACUAUGGGUG , can you help?
[reply] 1.0

[ask] Which Unfolding rate ku is reported for this molecule? m8: m8 mutant guanine sensing aptamer RNA (SEQ ID NO: 9); A19G and U77C in the P1 hairpin (nucleic acid, RNA, backbone and methylation of C not given here, A19G and U77C in the P1 hairpin) CACUCGUAUAAUCGCGUGGAUAUGGCACGCAAGUUUCUACCGGGCACCGUAAAUGUCCGACUACGGGUG
[reply] 0.2
